# tested-target: human GPR4 (Homo sapiens (Human), UniProt P46093)
# Sequence (P46093 whole entry): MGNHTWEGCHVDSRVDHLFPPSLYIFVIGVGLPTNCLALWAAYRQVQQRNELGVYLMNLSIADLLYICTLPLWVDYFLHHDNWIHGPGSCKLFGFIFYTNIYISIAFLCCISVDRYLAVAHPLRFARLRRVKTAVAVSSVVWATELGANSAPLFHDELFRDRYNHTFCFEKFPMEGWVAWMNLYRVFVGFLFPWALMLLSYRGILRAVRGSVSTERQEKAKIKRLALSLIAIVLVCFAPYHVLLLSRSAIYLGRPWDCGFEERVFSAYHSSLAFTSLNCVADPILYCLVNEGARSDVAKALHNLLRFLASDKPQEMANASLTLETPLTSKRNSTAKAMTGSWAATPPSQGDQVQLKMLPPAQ
# assay-name: Human GPR4 binding assay ([3H]4 radioligand, membranes of 300.19 cells expressing human GPR4)
# condition-notes: radioligand [3H]4 (example 39), membranes of 300.19 cells expressing human GPR4
pIC50: −log10 of the molar value. Structures can show the parent of a compound that is named as a salt.
assay-readout: pIC50

# example entries with known answers
compound	result-number
CCc1nn2c(C)cc(C)nc2c1Cc1ccc(-n2cc(CN3CCNCC3)nn2)cc1	7.42
CCc1nn2c(C)cc(C)nc2c1Cc1ccc(/C=C/CC2(O)CCN(C[C@@H](O)CO)CC2)cc1	7.62
CCc1nn2c(C)cc(C)nc2c1Cc1ccc(/C=C/CN2CCN(C(=O)CN)CC2)cc1 [Example 11, dihydrochloride]	7.42
CCc1nn2c(C)cc(C)nc2c1Cc1ccc(-n2cc(CN3CC(O)C3)cn2)cc1	6.93
CCc1nn2c(C)cc(C)nc2c1Cc1ccc(-n2cc(CN3CCNCC3)cn2)cc1	7.37
CCc1nn2c(C)cc(C)nc2c1Cc1ccc(OCC2CCN(C(=O)[C@H]3NCC[C@H]3O)CC2)cc1	7.72
CCc1nn2c(C)cc(C)nc2c1Cc1ccc(-c2nnc(C3CCN(C(=O)[C@H](CO)NC)CC3)o2)cc1 [Example 38, hydrochloride]	7.82
CCc1nn2c(C)cc(C)nc2c1Cc1ccc(OCCN2CCN[C@@H](COC)C2)cc1	7.23
CCc1nn2c(C)cc(C)nc2c1Cc1ccc(/C=C/C(=O)N2CCNCC2)cc1 [Example 18, hydrochloride]	7.09
CCc1nn2c(C)cc(C)nc2c1Cc1ccc(-n2cc(CN3CC(N)C3)cn2)cc1	7.68

[A] CCc1nn2c(C)cc(C)nc2c1Cc1ccc(/C=C/CN2CCN(C(=O)[C@H](CO)NC)CC2)cc1
[B] CCc1nn2c(C)cc(C)nc2c1Cc1ccc(/C=C/CN2CCNCC2)cc1
[C] CCc1nn2c(C)cc(C)nc2c1Cc1ccc(OCCC2(O)CCNCC2)cc1
[D] CCc1nn2c(C)cc(C)nc2c1Cc1ccc(-n2cc(CN3CCC(N)CC3)cn2)cc1
Hi! Can you put these in order of pIC50, lowest number first? Ranked list of labels, please, in the requested order. C, A, D, B

---

# tested-target: human GPR4 (Homo sapiens (Human))
# assay-name: Cell-based assay for human GPR4 activity (pH-induced cAMP formation, HTRF, HeLa cells)
# condition-notes: HeLa cells stably expressing human GPR4, pH-induced cAMP
Where a name gives a salt, the structure may show the parent alone.
assay-readout: IC50 (µM)

# example entries with known answers
molecule	IC50 / µM
CCc1nn2c(C)cc(C)nc2c1Cc1ccc(/C=C/CC2(O)CCNCC2)cc1	0.031
CCc1nn2c(C)cc(C)nc2c1Cc1ccc(-n2cc(CN3CC(O)C3)cn2)cc1	0.049
CCc1nn2c(C)cc(C)nc2c1Cc1ccc(/C=C/CC2(O)CCN(C(=O)CNC)CC2)cc1 [Example 7, hydrochloride]	0.033
CCc1nn2c(C)cc(C)nc2c1Cc1ccc(OCCN2CCNCC2)cc1	0.096
CCc1nn2c(C)cc(C)nc2c1Cc1ccc(OC[C@H]2CC[C@@H](NC(=O)[C@H]3NCC[C@H]3O)CC2)cc1	0.07
CCc1nn2c(C)cc(C)nc2c1Cc1ccc(/C=C/C(=O)N2CCNCC2)cc1 [Example 18, hydrochloride]	0.043

[a] CCc1nn2c(C)cc(C)nc2c1Cc1ccc(/C=C/CN2CCNCC2)cc1
[b] CCc1nn2c(C)cc(C)nc2c1Cc1ccc(/C=C/CN2CCC(c3nnnn3C)CC2)cc1 [Example 12, hydrochloride]
Sorting ascending by IC50, which comes first: a or b ? Answer with the label corresponding to your selection. b
